SUBJECT_OF_TEST: hERG potassium ion channel (Homo sapiens, UniProt Q12809)
Construct: expressed in transfected cells; host or cells: CHO cells
Sequence (Q12809 whole entry): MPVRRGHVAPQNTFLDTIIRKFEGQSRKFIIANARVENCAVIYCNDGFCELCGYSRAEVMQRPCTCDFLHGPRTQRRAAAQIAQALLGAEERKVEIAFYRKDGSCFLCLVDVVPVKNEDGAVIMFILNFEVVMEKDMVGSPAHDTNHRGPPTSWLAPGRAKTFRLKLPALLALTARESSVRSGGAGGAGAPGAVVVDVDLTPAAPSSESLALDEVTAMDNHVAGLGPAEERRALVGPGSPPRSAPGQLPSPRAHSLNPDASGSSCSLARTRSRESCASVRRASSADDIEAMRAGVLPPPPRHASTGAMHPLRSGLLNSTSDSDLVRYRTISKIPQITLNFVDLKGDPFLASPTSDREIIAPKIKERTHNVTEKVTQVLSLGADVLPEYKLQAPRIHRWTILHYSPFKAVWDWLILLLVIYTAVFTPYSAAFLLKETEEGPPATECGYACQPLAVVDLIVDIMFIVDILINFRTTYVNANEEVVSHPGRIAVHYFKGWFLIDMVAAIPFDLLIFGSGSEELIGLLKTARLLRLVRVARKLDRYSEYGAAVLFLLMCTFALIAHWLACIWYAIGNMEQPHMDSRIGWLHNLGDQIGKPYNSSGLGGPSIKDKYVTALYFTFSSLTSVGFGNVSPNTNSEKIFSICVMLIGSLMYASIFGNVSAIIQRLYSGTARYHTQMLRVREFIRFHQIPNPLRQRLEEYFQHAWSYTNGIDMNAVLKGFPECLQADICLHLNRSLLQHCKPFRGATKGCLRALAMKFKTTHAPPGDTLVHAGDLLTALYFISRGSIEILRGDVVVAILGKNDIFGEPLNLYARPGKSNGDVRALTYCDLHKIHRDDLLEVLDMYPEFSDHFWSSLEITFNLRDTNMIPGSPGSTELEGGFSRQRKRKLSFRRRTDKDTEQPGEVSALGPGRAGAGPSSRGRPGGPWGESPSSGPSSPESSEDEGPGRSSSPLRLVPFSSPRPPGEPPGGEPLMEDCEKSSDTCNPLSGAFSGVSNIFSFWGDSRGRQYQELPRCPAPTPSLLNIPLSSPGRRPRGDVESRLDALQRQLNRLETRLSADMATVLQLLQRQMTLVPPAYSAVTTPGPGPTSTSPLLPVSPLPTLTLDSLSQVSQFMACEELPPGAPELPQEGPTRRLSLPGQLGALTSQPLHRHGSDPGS
TEST_NAME: Inhibition of hERG potassium ion channel (Qpatch, CHO cells stably expressing hERG)
Assay type: cell-based
EXPERIMENTAL_SETUP: human; 20 µM, CHO cells stably expressing hERG; read-out: Inhibition rate at 20 µM
Answer no (0) if inhibition at 2.5 min, 20 µM is under 7%, and yes (1) if it is 7% or more.

// known answers, use as guide
MOLECULE | ASSIGNED_CLASS
CNC(=O)c1ccc(N2CCN(C[C@H]3CCc4nc(C)c(=O)[nH]c4C3)CC2)c(F)n1 | yes (1)
[2H]C([2H])([C@H]1CCc2nc(C)c(=O)[nH]c2C1)N1CCN(c2ccc(C(=O)NC)nc2F)CC1 | no (0)
CCc1cc2c([nH]c1=O)CC(CN1CC=C(c3ccc(C(=O)NC)nc3F)CC1)OC2 (centres unmarked) | yes (1)

Please tell me: is the molecule Cc1cc2c([nH]c1=O)CC(CN1CCN(c3ccc(C(=O)NC4CC4)nc3Cl)CC1)OC2 (centres unmarked) at or over 7% in terms of inhibition at 2.5 min, 20 µM?
yes (1)

Please tell me: is the molecule C=Cc1cc2c([nH]c1=O)CC(CN1CCN(c3ccc(C(=O)NC)nc3F)CC1)OC2 (centres unmarked) at or over 7% in terms of inhibition at 2.5 min, 20 µM?
no (0)

Please tell me: is the molecule CNC(=O)c1ccc(N2CCN(CC3Cc4[nH]c(=O)c(C)cc4CO3)CC2)c(Cl)n1 (centres unmarked) at or over 7% in terms of inhibition at 2.5 min, 20 µM?
yes (1)

Please tell me: is the molecule CNC(=O)c1ccc(N2CCN(CC3Cc4[nH]c(=O)c(SC)cc4CO3)CC2)c(C)n1 (centres unmarked) at or over 7% in terms of inhibition at 2.5 min, 20 µM?
yes (1)

Please tell me: is the molecule CCc1cc2c([nH]c1=O)CC(CN1CCN(c3ccc(C(=O)NC)nc3F)CC1)OC2 (centres unmarked) at or over 7% in terms of inhibition at 2.5 min, 20 µM?
no (0)

* * *

IC50, PARP6 (Homo sapiens, UniProt Q2NL67): measured values

COMPOUND | VALUE_OBSERVED
CCc1cc2ncc(CN3CCN(c4ccc(C(=O)NC)nc4)CC3)cc2[nH]c1=O [AZD5305, reference compound] | 8.19 µM

Moving on to another compound below.
Please report the measured IC50 for CNC(=O)c1ccc(N2CCN(CC3Cc4[nH]c(=O)c(C(F)F)cc4CO3)CC2)c(F)n1 (centres unmarked) [Example 43]
> 10 µM

* * *

Assign log10 AUC(0-t) to each entry below.
TEST_NAME: Pharmacokinetic evaluation in Balb/c mice
Type: in vivo
EXPERIMENTAL_SETUP: male, mouse, plasma, 1mg/kg, PO
Scale: log10; quantity: AUC(0-t); unit before log: ng·h/mL

MOLECULE | VALUE_OBSERVED
CNC(=O)c1ccc(N2CCN(C[C@H]3CCc4nc(C)c(=O)[nH]c4C3)CC2)c(F)n1 [Example 45] | 3.19

For each of the molecules below, state log10 AUC(0-t).
1. CCc1nc2c([nH]c1=O)C[C@@H](CN1CC=C(c3ccc(C(=O)NC)nc3F)CC1)CC2 [Example 53]
2. CNC(=O)c1ccc(N2CCN(CC3Cc4[nH]c(=O)c(C)cc4CO3)CC2)c(Cl)n1 (centres unmarked) [Example 74]

1. 4.35
2. 4.23

For each of the molecules below, state log10 AUC(0-t).
1. CNC(=O)c1ccc(C2=CCN(CC3Cc4[nH]c(=O)c(C5CC5)cc4CO3)CC2)c(F)n1 (centres unmarked) [Example 51]
2. CCc1cc2c([nH]c1=O)CC(CN1CCN(c3ccc(C(=O)NC)nc3F)CC1)OC2 (centres unmarked) [Compound 2]

[4.99, 3.73]

Recorded values, source patent EP4768487A1.
